# TGT: C-8 sterol isomerase ERG2 (Saccharomyces cerevisiae S288c) (UniProt P32352)
# Sequence (P32352 whole entry, looked up): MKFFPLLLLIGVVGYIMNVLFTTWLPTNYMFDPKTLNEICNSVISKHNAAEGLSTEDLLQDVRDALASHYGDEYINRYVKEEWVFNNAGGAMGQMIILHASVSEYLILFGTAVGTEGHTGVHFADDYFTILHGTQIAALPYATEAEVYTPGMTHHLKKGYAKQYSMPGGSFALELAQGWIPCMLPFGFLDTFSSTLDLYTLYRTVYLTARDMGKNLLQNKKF
# ASSAY_PROCEDURE: Inhibition of yeast sterol-delta8/7-isomerase assessed as accumulation of cholesta-8,14-dien-3beta-ol at 1 uM
Calls of active or inactive are those of the source. The calls are words filed in the database; no cut-off is given here.
Labels: class 1 for active, class 0 for inactive

COMPOUND_STRUCTURE_STRING | TGT | ASSIGNED_CLASS
c1ccc(CCN2CCCN(Cc3ccccc3)[C@@H](Cc3ccccc3)C2)cc1 | C-8 sterol isomerase ERG2 (Saccharomyces cerevisiae S288c) (UniProt P32352) | class 1
CN1CCCN(Cc2ccccc2)[C@H](Cc2ccccc2)C1 | C-8 sterol isomerase ERG2 (Saccharomyces cerevisiae S288c) (UniProt P32352) | class 1
COc1ccc(CN2CCCN(Cc3ccccc3)[C@@H](C(C)C)C2)cc1 | C-8 sterol isomerase ERG2 (Saccharomyces cerevisiae S288c) (UniProt P32352) | class 1
C[C@H]1CN(CCCCc2ccccc2)CCCN1Cc1ccccc1 | C-8 sterol isomerase ERG2 (Saccharomyces cerevisiae S288c) (UniProt P32352) | class 0
CCCCN1CCCN(Cc2ccccc2)[C@H](Cc2ccccc2)C1 | C-8 sterol isomerase ERG2 (Saccharomyces cerevisiae S288c) (UniProt P32352) | class 1
CN1CCCN(Cc2ccccc2)[C@@H](Cc2ccccc2)C1 | C-8 sterol isomerase ERG2 (Saccharomyces cerevisiae S288c) (UniProt P32352) | class 1
c1ccc(CCCCN2CCCN(Cc3ccccc3)[C@@H](Cc3ccccc3)C2)cc1 | C-8 sterol isomerase ERG2 (Saccharomyces cerevisiae S288c) (UniProt P32352) | class 1
c1ccc(CCN2CCCN(Cc3ccccc3)[C@H](Cc3ccccc3)C2)cc1 | C-8 sterol isomerase ERG2 (Saccharomyces cerevisiae S288c) (UniProt P32352) | class 1
CCCCN1CCCN(Cc2ccccc2)[C@H](C)C1 | C-8 sterol isomerase ERG2 (Saccharomyces cerevisiae S288c) (UniProt P32352) | class 1
c1ccc(C[C@H]2CN(Cc3ccccc3)CCCN2Cc2ccccc2)cc1 | C-8 sterol isomerase ERG2 (Saccharomyces cerevisiae S288c) (UniProt P32352) | class 1
c1ccc(C[C@H]2CNCCCN2Cc2ccccc2)cc1 | C-8 sterol isomerase ERG2 (Saccharomyces cerevisiae S288c) (UniProt P32352) | class 1
c1ccc(CCCN2CCCN(Cc3ccccc3)[C@H](Cc3ccccc3)C2)cc1 | C-8 sterol isomerase ERG2 (Saccharomyces cerevisiae S288c) (UniProt P32352) | class 1
c1ccc(CCCN2CCCN(Cc3ccccc3)[C@@H](Cc3ccccc3)C2)cc1 | C-8 sterol isomerase ERG2 (Saccharomyces cerevisiae S288c) (UniProt P32352) | class 1
c1ccc(CCCCN2CCCN(Cc3ccccc3)[C@H](Cc3ccccc3)C2)cc1 | C-8 sterol isomerase ERG2 (Saccharomyces cerevisiae S288c) (UniProt P32352) | class 0
CCCCN1CCCN(Cc2ccccc2)[C@@H](C)C1 | C-8 sterol isomerase ERG2 (Saccharomyces cerevisiae S288c) (UniProt P32352) | class 1
CCCCN1CCCN(Cc2ccccc2)[C@@H](Cc2ccccc2)C1 | C-8 sterol isomerase ERG2 (Saccharomyces cerevisiae S288c) (UniProt P32352) | class 1
c1ccc(C[C@@H]2CNCCCN2Cc2ccccc2)cc1 | C-8 sterol isomerase ERG2 (Saccharomyces cerevisiae S288c) (UniProt P32352) | class 1

###

# TGT: C-8 sterol isomerase ERG2 (Saccharomyces cerevisiae S288c)
# ASSAY_PROCEDURE: Inhibition of yeast sterol-delta8/7-isomerase assessed as accumulation of cholesta-8-en-3beta-ol at 50 uM
Active and inactive are the calls of the source. No cut-off for these calls is given here.
Labels: y = active, n = inactive

COMPOUND_STRUCTURE_STRING | ASSIGNED_CLASS
c1ccc(C[C@H]2CN(Cc3ccccc3)CCCN2Cc2ccccc2)cc1 | n
c1ccc(CCCCN2CCCN(Cc3ccccc3)[C@H](Cc3ccccc3)C2)cc1 | y
c1ccc(C[C@@H]2CNCCCN2Cc2ccccc2)cc1 | n

###

# TGT: Sigma non-opioid intracellular receptor 1 (Cavia porcellus, UniProt Q60492)
# Sequence (Q60492 whole entry): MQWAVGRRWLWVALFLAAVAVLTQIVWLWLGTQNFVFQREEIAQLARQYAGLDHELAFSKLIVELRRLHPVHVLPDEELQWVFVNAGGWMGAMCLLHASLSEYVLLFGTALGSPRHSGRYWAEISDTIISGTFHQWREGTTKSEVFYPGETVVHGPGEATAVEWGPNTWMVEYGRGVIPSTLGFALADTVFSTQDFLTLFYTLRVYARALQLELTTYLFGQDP
# ASSAY_PROCEDURE: Displacement of [3H]-pentazocine from sigma1 receptor in guinea pig brain membranes after 120 mins by liquid scintillation counting
A collection of molecules and their measured Ki

MOLECULE | Ki
CCCCN1CCCN(Cc2ccccc2)[C@H](C)C1 | 0.37 nM
CC(C)=CCN1CCCN(Cc2ccccc2)[C@H](Cc2ccccc2)C1 | 5 nM
CCCCN1CCCN(C)[C@H](Cc2ccccc2)C1 | 113 nM
OCC(c1ccccc1)N1CCCN(Cc2ccccc2)[C@@H](Cc2ccccc2)C1 (stereo partly specified) | 228 nM
CCCCN1CCCN(CCCCc2ccccc2)[C@H](Cc2ccccc2)C1 | 13 nM
OC(CN1CCCN(Cc2ccccc2)[C@H](Cc2ccccc2)C1)c1ccccc1 (stereo partly specified) | 51 nM
